Please go through the items and note down their T/C.
System: L1210 leukemia ip in BDF1 mice, survival T/C
Assay overview: NCI In Vivo Anticancer Drug Screen. Data for tumor model L1210 Leukemia (intraperitoneal) in B6D2F1 (BDF1) mice
Cond: endpoint: mean survival time; dose: 400.0 mg/kg/injection; schedule: Q04DX003 (ip); vehicle: Klucel (hydroxypropylcellulose) (HPC); higher = longer survival
Inconclusive results and toxic doses are left out.

Lab note: measured T/C of C(=Nc1cnc2sccc2c1)c1ccccc1 was 94 % of control

Lab note: measured T/C of C#CCCCCCCCCCC(=O)OC was 98 % of control

Lab note: measured T/C of O=[N+]([O-])c1ccc(-c2cnc(Nc3ccc(Cc4ccc(Nc5ncc(-c6ccc([N+](=O)[O-])cc6)s5)c(Cl)c4)cc3Cl)s2)cc1 was 98 % of control

Lab note: measured T/C of CSc1ccc(OC(=O)Nc2cc(C)ccc2C)cc1 was 107 % of control

Lab note: measured T/C of CC(C)=CCOC(N)=O was 109 % of control

Lab note: measured T/C of CCCCNC(=O)NC/C(Br)=C/Br was 93 % of control

---

Please go through the items and note down their T/C.
Test system: L1210 leukemia ip in BDF1 mice, survival T/C
Assay overview: NCI In Vivo Anticancer Drug Screen. Data for tumor model L1210 Leukemia (intraperitoneal) in B6D2F1 (BDF1) mice
Cond: endpoint: mean survival time; dose: 100.0 mg/kg/injection; schedule: Q01DX009 (ip); vehicle: Klucel (hydroxypropylcellulose) (HPC); higher = longer survival
Inconclusive results and toxic doses are left out.

L1210 leukemia ip in BDF1 mice, survival T/C T/C of Cc1c(-c2ccccc2)nn(O)c1-c1ccccc1 is 102 % of control

L1210 leukemia ip in BDF1 mice, survival T/C T/C of Cc1ccc(N=Cc2ccccc2)cc1 is 104 % of control

L1210 leukemia ip in BDF1 mice, survival T/C T/C of CC(=O)OCC(OC(C)=O)C(OC1OC(COC(C)=O)C(OC(C)=O)C(OC(C)=O)C1OC(C)=O)C(OC(C)=O)C(C=O)OC(C)=O (stereo unspecified) is 89 % of control

L1210 leukemia ip in BDF1 mice, survival T/C T/C of CCOC(=O)NC(C)(C)CC(C)(C)C is 101 % of control

L1210 leukemia ip in BDF1 mice, survival T/C T/C of C=CCNC(=S)NNC(=O)c1ccncc1 is 107 % of control

L1210 leukemia ip in BDF1 mice, survival T/C T/C of CSc1ccc(OC(=O)Nc2cc(C)ccc2C)cc1 is 97 % of control

---

Tested on: L1210 leukemia ip in BDF1 mice, survival T/C
Assay overview: NCI In Vivo Anticancer Drug Screen. Data for tumor model L1210 Leukemia (intraperitoneal) in B6D2F1 (BDF1) mice
Cond: endpoint: mean survival time; dose: 50.0 mg/kg/injection; schedule: Q04DX003 (ip); vehicle: saline with Tween-80; higher = longer survival
Toxic doses and inconclusive results are not listed.
Please go through the items and note down their T/C.

Lab note: measured T/C of O=C(CSc1cc(Cl)c(Cl)cc1Cl)Nc1cccc(Br)c1 was 94 % of control

Lab note: measured T/C of O=S(=O)(Cl)OC1C2COC(O2)C(OS(=O)(=O)Cl)C1OS(=O)(=O)Cl (stereo not given) was 96 % of control

Lab note: measured T/C of Cc1ccc(Cl)cc1NC(=O)Nc1cccc2ccc(O)cc12 was 102 % of control

Lab note: measured T/C of CC(=O)CC(C)=NCCN=C(C)CC(C)=O.[Cu] was 88 % of control

Lab note: measured T/C of C#CCOCC(CCl)OC(N)=O (stereo not given) was 104 % of control
